Reference for the values: patent US20260158064A1

koff values, listed per item
Biological target: T1, human ROR1-His protein (fused with a His protein tag, Acrobiosystems, RO1-H522y) (human, UniProt Q01973 30-403)
T1 construct: also called recombinant human ROR1-His protein; not shown: His tag
T1 sequence (Q01973 30-403 limits assumed): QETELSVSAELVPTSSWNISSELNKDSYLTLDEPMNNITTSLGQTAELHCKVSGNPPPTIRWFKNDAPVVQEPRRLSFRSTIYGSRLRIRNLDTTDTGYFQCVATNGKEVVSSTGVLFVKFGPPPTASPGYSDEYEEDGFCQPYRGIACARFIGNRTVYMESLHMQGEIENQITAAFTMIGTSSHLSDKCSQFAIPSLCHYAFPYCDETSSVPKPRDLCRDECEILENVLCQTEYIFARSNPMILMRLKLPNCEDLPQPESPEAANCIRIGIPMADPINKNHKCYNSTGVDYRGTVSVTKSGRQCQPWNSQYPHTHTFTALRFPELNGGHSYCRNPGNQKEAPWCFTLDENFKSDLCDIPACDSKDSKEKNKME
Test: SPR Biacore T200, method as Example 6 (antibody Fc-captured, antigen as analyte)
Write it as a number; the unit s⁻¹ goes unstated.

Given item single domain antibody AHF22018 (Fc fusion, not shown: human IgG1 Fc; vector and li) EVQLVESGGGLVQPGGSLRLSCAASGRSFSSFQMGWFRQAPGKEREFVAASGWSGGPTYYWDSWKGRFTISTDNSKNTLYLQMNSLRAEDTAVYYCYEDRVLSGRWVRYWGQGTLVTVSS , the value recorded as its koff is 0.000884

// koff value for single domain antibody AHF22013 (Fc fusion, Fc format is inferred; not shown: human IgG1 Fc; vector and li) EVQLVESGGGLVQPGGSLRLSCAASGRSFSSFQMGWFRQAPGKEREFVAASGWSGGPTYYWDSVIGRFTISTDNSKNTLYLQMNSLRAEDTAVYYCYEDRVLSGRHVRYWGQGTLVTVSS : 0.000374
